# Assay details: qHTS of pediatric cancer cell lines to identify multiple opportunities for drug repurposing: Confirmatory screen for control Hh wild type fibroblast cells (AID 1347121); further: nearly all actives have a fitted effect of over 70% in size
# Condition: viability qHTS; series mostly up to 45.9 µM
Inconclusive results are not listed. The source made the active and inactive calls. The call rests on the fitted dose curve; in most records, active means well fitted cell-killing curve with a large enough effect; inconclusive means small, poorly fitted or top-dose-only effect, or effect the other way; inactive means flat fitted curve, though single readings scatter.
Classes used: active, inactive

{"columns": ["Compound", "Class"],
 "data": [
  ["CCC(=O)OCC(=O)[C@@]1(OC(=O)CC)[C@@H](C)C[C@@H]2[C@H]3CCC4=CC(=O)C=C[C@]4(C)[C@@]3(F)[C@@H](O)C[C@@]21C", "inactive"],
  ["CC1(COc2ccc3c(c2)ncn3-c2ccc3cccc(N4CCC(N)CC4)c3n2)COC1", "inactive"],
  ["CC[C@H](NC(=O)[C@H](C)NC)C(=O)N1C[C@@H](O)C[C@H]1Cc1c(-c2[nH]c3cc(F)ccc3c2C[C@H]2C[C@H](O)CN2C(=O)[C@H](CC)NC(=O)[C@H](C)NC)[nH]c2cc(F)ccc12", "inactive"],
  ["CCN(CCO)CCCOc1ccc2c(Nc3cc(CC(=O)Nc4cccc(F)c4)[nH]n3)ncnc2c1", "inactive"],
  ["Nc1ccn([C@@H]2O[C@H](CO)[C@@H](O)[C@H]2O)c(=O)n1", "inactive"],
  ["Cc1ccc(S(=O)(=O)Nc2nc3ccccc3nc2Nc2ccc3nsnc3c2)cc1", "inactive"],
  ["COc1cc2c(cc1Cc1cccc(Cl)c1F)c(=O)c(C(=O)O)cn2[C@H](CO)C(C)C", "inactive"],
  ["COc1cc2ncnc(Nc3cc(Br)c(O)c(Br)c3)c2cc1OC", "inactive"],
  ["COc1cc2nccc(Oc3ccc(NC(=O)Nc4cc(C)on4)c(Cl)c3)c2cc1OC", "inactive"],
  ["COc1ccc2c(c1)c(C1=C(c3c[nH]c4ccccc34)C(=O)NC1=O)cn2CCCN(C)C", "inactive"],
  ["Cc1c(C(=O)Nc2ccc(N3C[C@@H](C)O[C@@H](C)C3)nc2)cccc1-c1ccc(OC(F)(F)F)cc1", "inactive"],
  ["CC[C@]1(O)C[C@H]2CN(CCC3=c4ccccc4=N[C]3[C@@](C(=O)OC)(c3cc4c(cc3OC)N(C)[C@H]3[C@@](O)(C(N)=O)[C@H](O)[C@]5(CC)C=CCN6CC[C@]43[C@@H]65)C2)C1", "inactive"],
  ["CON(C)C(=O)N1N=C(c2cc(F)ccc2F)S[C@]1(CCCN)c1ccccc1", "inactive"],
  ["CO[C@H]1/C=C\\O[C@@]2(C)Oc3c(C)c(O)c4c(O)c(c(C=NN5CCN(C6CCCC6)CC5)c(O)c4c3C2=O)NC(=O)C(C)=CC=C[C@H](C)[C@H](O)[C@@H](C)[C@@H](O)[C@@H](C)[C@H](OC(C)=O)[C@H]1C", "inactive"],
  ["COc1cc2c(cc1OC)[C@@H]1Cc3ccc(OC)c(OC)c3CN1CC2", "inactive"],
  ["OCCn1cc(-c2ccc3c(c2)CCC3=NO)c(-c2ccncc2)n1", "inactive"],
  ["Cc1ccc(C(=O)N(CCCN)[C@@H](c2nc3cc(Cl)ccc3c(=O)n2Cc2ccccc2)C(C)C)cc1", "inactive"],
  ["CCC(C)SSc1ncc[nH]1 (stereo not given)", "inactive"],
  ["COC(=O)[C@H](c1ccccc1Cl)N1CCc2sccc2C1", "inactive"],
  ["CCCC1OC2C[C@@H]3[C@H]4CCC5=CC(=O)C=C[C@]5(C)[C@H]4C(O)C[C@]3(C)[C@]2(C(=O)CO)O1 (stereo not given in full)", "inactive"],
  ["CC1C(=O)OC2C(O)C34C5CC(C(C)(C)C)C36C(OC(=O)C6O)OC4(C(=O)O5)C12O (stereo not given)", "inactive"],
  ["NC(N)=Nc1nc(CSCCC(N)=NS(N)(=O)=O)cs1", "inactive"],
  ["CC1=C(CC(=O)O)c2cc(F)ccc2C1=Cc1ccc(S(C)=O)cc1 (stereo not given)", "inactive"],
  ["C[C@@]1(C(=O)Nc2ccc(F)nc2)CCCN1c1nc(Nc2cc(C3CC3)[nH]n2)c2cccn2n1", "active"],
  ["CCC[C@H](Nc1nc(-c2ccc(NC(=O)NCC)c(OC)c2)ncc1C)c1cccnc1", "inactive"],
  ["COc1ccc(-c2ccc3ncc4c(c3c2)n(-c2ccc(N3CCNCC3)c(C(F)(F)F)c2)c(=O)n4C)cn1", "active"],
  ["CC(=O)N1CCN(c2ccc(OCc3nn(C)c(C)c3-c3cccc4c(CCCOc5cc(C)c(Cl)c(C)c5)c(C(=O)O)n(Cc5cccnc5)c34)cc2)CC1", "inactive"],
  ["CN1CCN(c2ncc(-c3cc(Cl)cc(Cl)c3Cl)c(N)n2)CC1", "inactive"],
  ["O=C(CC12CC3CC(CC(C3)C1)C2)Nc1cccc2nc(NCCNCCO)ccc12", "inactive"],
  ["N#CC(=C1Nc2ccccc2S1)c1ccnc(OCc2ccc(CN3CCOCC3)cc2)n1", "inactive"],
  ["Cc1cnc(-c2cc(N3CCN(C(=O)CCS(C)(=O)=O)CC3)ncc2Cl)c(C)c1", "inactive"],
  ["Cc1ccccc1-n1c(Cn2nc(-c3cccc(O)c3)c3c(N)ncnc32)nc2cccc(C)c2c1=O", "inactive"],
  ["C[C@@]1(c2cc(-c3cncnc3)c(F)cc2F)CCSC(N)=N1", "inactive"],
  ["CC1=C[C@@H]2[C@@H]([C@@H](O)C[C@@]3(C)[C@H]2C[C@@H](C)[C@]3(O)C(=O)CO)[C@@]2(C)Cc3cnn(-c4ccccc4)c3C=C12", "inactive"],
  ["FC(F)(F)c1ccc(C=Cc2nc(COc3ccc(CCCCn4ccnn4)cc3)co2)cc1", "active"]
]}
